test: in vitro; settings: rat, gh3-tre-luc cells, AC50 (uM) modified / 1000, Tox21_110001=Tox21_200928; viability, 1 nM T3 present, 24 h
quantity kind: CC50 at 24 h

Problem: Which CC50 at 24 h reading was recorded for the molecule OC[P+](CO)(CO)CO ?
Result: > 90 µM

====

test system: GH3-TRE-Luc cell line; conditions: read-out: AC50 (uM) modified / 1000; Tox21_110001=Tox21_302812; viability, 1 nM T3 present, 24 h
quantity kind: CC50 (µM)
Numbers only, in µM.

Problem: Which CC50 reading was recorded for the molecule CCN(CC)C(=S)S [Sodium diethyldithiocarbamate trihydrate] ?
Result: 8.88

====

test: in vitro; conditions: rat, gh3-tre-luc cells, AC50 (uM) modified / 1000
Where a name gives a salt, the structure may show the parent alone.
Assign CC50 at 24 h to each entry below.

C[C@]12O[C@H](C[C@]1(O)CO)n1c3ccccc3c3c4c(c5c6ccccc6n2c5c31)CNC4=O [Lestaurtinib]: 0.226 µM
CCCCCCOC(=O)CCCCC [Hexyl hexanoate]: > 90 µM

For each of the compounds below, note its CC50 at 24 h.
1. CC(=O)OCC(C)C [Isobutyl acetate]
2. O=c1ccn(C2OC(COP(=O)(O)OC3C(CO)OC(n4ccc(=O)[nH]c4=O)C3O)C(O)C2O)c(=O)[nH]1 (stereo not drawn) [Uricase from Bacillus fastidiosus]
3. O=c1oc2cc(O)ccc2c2oc3cc(O)ccc3c12 [Coumestrol]
4. COc1cc(N)c(Cl)cc1C(=O)NC1CN2CCC1CC2 (stereo not drawn) [Zacopride hydrochloride]
5. OC[C@@H](O)[C@@H](O)[C@H](O)[C@H](O)CO [D-Mannitol]

Result:
> 90 µM
> 50 µM
> 90 µM
> 50 µM
> 90 µM

For each of the compounds below, note its CC50 at 24 h.
1. Cc1oc(-c2ccccc2)nc1CCOc1ccc(C[C@H](Nc2ccccc2C(=O)c2ccccc2)C(=O)O)cc1 [Farglitazar]
2. CCCc1ccccc1 [Propylbenzene]

Result:
1: 25 µM; 2: > 90 µM

====

experiment: in vitro; conditions: rat, gh3-tre-luc cells, AC50 (uM) modified / 1000
Structures can show the parent of a compound that is named as a salt.
Assign CC50 at 24 h to each entry below.

Reference set, count: 5
CC(C)=CCCC(C)=CC#N [Citralva]: > 90 µM
O=C(O)[C@H](O)[C@@H](O)[C@H](O[C@@H]1O[C@H](CO)[C@H](O)[C@H](O)[C@H]1O)[C@H](O)CO [Lactobionic acid]: > 20 µM
COc1cc(C(=O)NS(=O)(=O)c2ccccc2C)ccc1Cc1cn(C)c2ccc(NC(=O)OC3CCCC3)cc12 [Zafirlukast]: 28.8 µM
Cc1cccc(O)c1 [m-Cresol]: > 100 µM
C(=C(c1ccccc1)c1ccccc1)c1ccccc1 [Triphenylethylene]: > 90 µM

For each of the compounds below, note its CC50 at 24 h.
1. CCCCNc1ccc(C(=O)OCCN(CC)CC)cc1 [Depolipon]
2. CCCCC(CC)COCC1CO1 (stereo not shown) [2-Ethylhexyl glycidyl ether]
3. CCCCCCCCOc1ccc(C(=O)O)cc1 [4-Octyloxybenzoic acid]
4. CC1(C)C(=O)N(Br)C(=O)N1Br [1,3-Dibromo-5,5-dimethylhydantoin]
5. COc1ccc(CCN(C)CCCN2CCc3cc(OC)c(OC)cc3CC2=O)cc1OC [Zatebradine hydrochloride]
6. O=C(CC(=O)C(F)(F)F)c1ccccc1 [4,4,4-Trifluoro-1-phenyl-1,3-butanedione]
7. NCCc1ccc(O)cc1 [Tyramine hydrochloride]
8. COCc1nnc(-c2ccc[n+]([O-])c2)n1-c1c(Cl)c(Cl)cc2[nH]c(=O)c(=O)[nH]c12 [UK-333747]

Result:
> 50 µM
> 90 µM
> 90 µM
> 90 µM
> 50 µM
> 90 µM
> 90 µM
> 90 µM
